# Test system: Human Heme Oxygenase-1 (HMOX-1)
# assay.text: ELISA assay to measure human heme oxygenase-1 (HMOX-1) in HepG2 lysate
# Assay type: cell-based
# applied.conditions: human HMOX1 protein level in HepG2 lysate; * = average of 2 or more EC50 determinations; NA = Not Active; read-out: EC50
pEC50: −log10 of the molar value. Structures can show the parent of a compound that is named as a salt.
measured.quantity: pEC50

Some solved cases for reference:
[
  {
    "compound": "Cn1c(Nc2nc3ccc(OCCO)cc3o2)nc2cc(C(=O)NCCN)ccc21 [Example 105, hydrochloride]",
    "pEC50": 5.39
  },
  {
    "compound": "COCCNC(=O)c1ccc2c(c1)nc(Nc1nc3ccc(OC(F)(F)F)cc3s1)n2C1CCOCC1",
    "pEC50": 5.42
  },
  {
    "compound": "Cn1c(Nc2nc3ccc(OC(F)(F)F)cc3o2)nc2cc(C(=O)NC(CO)CO)ccc21",
    "pEC50": 5.70
  },
  {
    "compound": "Cn1c(Nc2nc3ccc(OC(F)(F)F)cc3o2)nc2cc(C(=O)Nc3cn[nH]c3)ccc21",
    "pEC50": 5.66
  },
  {
    "compound": "Cn1c(Nc2nc3cc(C(=O)O)ccc3n2C)nc2cc(OC(F)(F)F)ccc21",
    "pEC50": 5.28
  }
]

(I) Cn1c(Nc2nc3ccccc3o2)nc2cc(C(=O)NCCO)ccc21
(II) CC(O)COCCNC(=O)c1ccc2c(c1)nc(Nc1nc3ccccc3o1)n2C (centres unmarked)
# input Compare the recorded pEC50 of I and II ; state which is larger. Give the chosen item's label as your response.
# output I
(I: 6.15, II: 5.66)

(a) COCCONC(=O)c1ccc2c(c1)nc(Nc1nc3ccccc3o1)n2C
(b) Cn1c(Nc2nc3cccc(C(F)(F)F)c3o2)nc2cc(C(=O)NCCOCCO)ccc21
(c) COCCn1c(Nc2nc3cc(OC(F)(F)F)ccc3[nH]2)nc2cc(C(=O)O)ccc21
# input Sort (3 compounds) by pEC50: min first. A complete answer lists every label in the requested sequence.
# output b, a, c

----------
# assay.text: PD study: compound concentration in mouse liver
# Type: in vivo, C57BL/6 mice
# applied.conditions: male, C57BL/6, mouse, 50 mg/kg, 50 mpk oral, 4 hours (Study 702), read-out: Liver Conc uM (4 h)
# Procedure: 9-10 week old male C57BL/6 mice were dosed orally with 50 mg/kg of vehicle or compound formulated in 5% w/v tween 80 and 0.5% methyl cellulose. At indicated time points (3 and 6 hours or or 4 and 8 hours post-dosing as shown in the results below), whole blood was collected, animal was sacrificed and liver was collected. Blood samples were transferred to vials containing 4 μL of 10% w/v EDTA, centrifuged at 6000 rpm for 8 in below 10° C. to obtain plasma. […]
measured.quantity: concentration at 4 h (µM)
# unit: µM | format: bare number

# input Give the measured concentration at 4 h of Cn1c(Nc2nc3ccccc3o2)nc2cc(C(=O)NCCOCCO)ccc21 .
# output 11

----------
# assay.text: PK study: plasma and brain levels in mice
# Type: in vivo
# applied.conditions: mouse, plasma; male C57BL/6 mice, 50 mg/kg oral, 0.5 hr post dosing; read-out: Plasma (ng/ml) 0.5 hr
measured.quantity: concentration at 0.5 h (ng/mL)

[
  {
    "mol": "COCCNC(=O)c1ccc2c(c1)nc(Nc1nc3ccc(OCCOC)cc3o1)n2C",
    "concentration at 0.5 h [ng/mL]": 4240
  },
  {
    "mol": "Cn1c(Nc2nc3ccccc3o2)nc2cc(C(=O)NCCOCCO)ccc21",
    "concentration at 0.5 h [ng/mL]": 4240
  }
]
